Give Cell toxicity MCC (minimum cytotoxic concentration) for every item shown.
# System: PHKs
# measurement.protocol: Cytotoxicity by cell morphology
# Format: cell-based, human
# measurement.setup: non-infected

### Prompt Short answer please: Cell toxicity MCC (minimum cytotoxic concentration), PHKs, entry Nc1ccn(C[C@@H](CO)OCP(=O)(O)O)c(=O)n1 [Cidofovir]
### Response >50 µg/mL

### Prompt Short answer please: Cell toxicity MCC (minimum cytotoxic concentration), PHKs, entry C[C@H](Cn1cnc2c(N)ncnc21)OCP(=O)(O)O [Tenofovir]
### Response >200 µg/mL

### Prompt Short answer please: Cell toxicity MCC (minimum cytotoxic concentration), PHKs, entry Nc1nc2c(ncn2COCCO)c(=O)[nH]1 [Acyclovir, 9-(2-hydroxyethoxy-methyl)guanine]
### Response >50 µg/mL

### Prompt Short answer please: Cell toxicity MCC (minimum cytotoxic concentration), PHKs, entry Nc1ncnc2c1ncn2CCOCP(=O)(O)O [Adefovir, 9-[2-(phosphonylmethoxyethyl)adenine]]
### Response >50 µg/mL
